I'd be grateful if you could share measured pEC50 for these entries.
Biological target: human α7 NNR (Homo sapiens)
Sequence (P36544 23-502): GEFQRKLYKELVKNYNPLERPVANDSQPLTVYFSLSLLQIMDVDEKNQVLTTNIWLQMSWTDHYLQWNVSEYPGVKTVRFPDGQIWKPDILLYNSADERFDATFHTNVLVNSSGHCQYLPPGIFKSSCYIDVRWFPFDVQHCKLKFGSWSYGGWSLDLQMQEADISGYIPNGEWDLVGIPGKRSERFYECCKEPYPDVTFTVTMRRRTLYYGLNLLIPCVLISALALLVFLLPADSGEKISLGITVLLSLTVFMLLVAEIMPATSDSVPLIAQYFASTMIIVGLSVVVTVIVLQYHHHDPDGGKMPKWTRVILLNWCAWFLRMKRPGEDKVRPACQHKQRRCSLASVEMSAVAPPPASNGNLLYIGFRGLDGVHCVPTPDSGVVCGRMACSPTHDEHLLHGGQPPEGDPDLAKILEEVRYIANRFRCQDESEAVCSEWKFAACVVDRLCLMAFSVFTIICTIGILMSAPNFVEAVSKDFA
Test: Two-electrode voltage-clamp in Xenopus laevis oocytes, potentiation of ACh-evoked α7 currents
Settings: potentiation of 0.1 mM ACh-evoked α7 currents
To interpret pEC50, take it as minus log10 of a concentration measured in moles per litre.

Ask: So what does the record say about pEC50 for `CN(C)c1ccc(CNC(=O)c2ccc(SC(F)(F)F)cc2)cc1` ?
Result: 6.74

Ask: Same thing, different molecule: `CNc1ccc(CNC(=O)c2ccc(SC(F)F)cc2)cc1`
Result: 5.92

Ask: Here is the next molecule: `CNc1ccc(CNC(=O)c2ccc(SC(F)(F)F)cc2)cc1`
Result: 7.01

Ask: Entry to check: `Nc1ccc(CNC(=O)c2ccc(SC(F)(F)F)cc2)cc1`
Result: 5.27

Ask: Item: `O=C(NCc1cccc(-n2cccn2)c1)c1ccc(SC(F)(F)F)cc1`
Result: 5.43
